Tested on: OVCAR-8 ovarian
Assay: NCI tumour cell line growth inhibition, 48 h
Attribute: TGI

COC[C@H]1Cn2cc(-c3nc(Nc4ccnn4C)ncc3C)nc2C(=O)N1Cc1ccc(F)c(F)c1 : > 100 µM
Cc1cc2c(C)[nH]nc2c(C(=O)O)c1C : > 100 µM
CCCCCC[C@@H]1CCC2C(CO)[C@@H](O)CC[C@@H]2C1 (stereo partly specified) : 33.4 µM
Cc1oc2c(cc(O)c3cc(O)ccc32)c2cccc1-2 : > 100 µM
O=C1C=CC(=O)c2nc3c(cc21)CCC3 : 28.8 µM
O=C(NCc1ccccc1)c1n[nH][nH]c1=O : > 100 µM

## Task Given CC(=O)N(C(=O)CC(=O)N1N=C(c2ccccc2)C(N=Nc2ccccc2[N+](=O)[O-])C1=O)c1ccc(Cl)cc1 (stereo unspecified) , state its recorded TGI.
## Result > 10 µM

## Task Given O=C(Nc1ccc(Oc2ccc(Nc3nc4ccccc4s3)cc2)cc1)Nc1ccc(Cl)c(C(F)(F)F)c1 , state its recorded TGI.
## Result 7.29 µM

## Task Given CC(=O)Oc1cccc2c1C(=O)CCCC2 , state its recorded TGI.
## Result > 100 µM

## Task Given c1ccc(NCn2cnc3ccccc32)cc1 , state its recorded TGI.
## Result > 100 µM

## Task Given O=C(/C=C/c1ccc2c(c1)OCO2)c1ccc(O)cc1 , state its recorded TGI.
## Result 3.11 µM

----------
Tested on: SK-MEL-2 melanoma
Test: NCI tumour cell line growth inhibition, 48 h
Where a SMILES comes first, the peptide text is derived from it. [ ]: non-standard residue; d: D form. The star is where a group is joined. ξ: configuration not given here. X3 = COc1ccc(C(N*)c2ccc(OC)cc2)cc1; NMeF = CN[C@@H](Cc1ccccc1)C(=O)O; NMeD = CN[C@@H](CC(=O)O)C(=O)O; NMeV = CN[C@H](C(=O)O)C(C)C; ξNMeV = CNC(C(=O)O)C(C)C; Boc = CC(C)(C)OC(=O)*; ξNMeA = CNC(C)C(=O)O; ξV = CC(C)C(N)C(=O)O
measured.metric: GI50

Would you please look over these solved cases?
CCN(C(=O)N1CCN(c2cc3c(cc2F)c(=O)c(C(=O)O)cn3C2CC2)CC1)c1nc(-c2ccc(Cl)cc2)cs1 : 2.12 µM
COc1cccc(-c2nc(-c3ccc(NC(=O)OC(C)C)cc3)[nH]c2-c2ccnc(Br)c2)c1 : 2.33 µM
O=C(CCCSc1nc(-c2ccccc2)cc(-c2ccccc2)n1)NO : 2.35 µM
CCOC(=O)C1=C(C)N(c2ccc(F)cc2F)[C@]2(C#N)C(O)=C(Cl)C(Cl)=C(O)[C@]12C#N : > 100 µM
COc1cc(-c2ccc3cc(OC)c(OC)c(OC)c3c2)cc(OC)c1OC : 16.6 µM
COc1ccc(/C=N/NC(=O)c2cccc3cc[nH]c23)cc1O : 18.9 µM
COc1ccc2[nH]cc(/C=C(/C)c3ccncc3)c2c1 : 58.1 µM
Cc1nnc(NC(=O)c2nc(S(=O)(=O)Cc3ccc(F)cc3)ncc2Cl)s1 : 3.19 µM
CCN1C(=O)N(c2ccccc2)C2NC(=S)N(/N=C/C=C/c3ccccc3OC)C21 (stereo unspecified) : 0.166 µM
Nc1n[nH]c2cccc(C#Cc3cccc(C(=O)Nc4ccc(CN5CCOCC5)c(C(F)(F)F)c4)c3)c12 : 2.07 µM

## Task Given CC(C)[C@@H]1C=C2CC[C@H]3[C@](C)(CN)CCC[C@]3(C)[C@H]2CC1 , state its recorded GI50.
## Result 3.88 µM

## Task Given CCCOc1cc2ccccc2cc1C(=O)Nc1nc(N)c2c(ccc3nccc32)[nH]1 , state its recorded GI50.
## Result 0.0368 µM

## Task Given Nc1ccc(C2=NNC(=O)Cc3cc4c(cc32)OCCO4)cc1Cl , state its recorded GI50.
## Result 2.81 µM

## Task Given Cc1ccc(-n2c3nc(=O)[nH]c(=O)c-3cc3cc([N+](=O)[O-])ccc32)cc1 , state its recorded GI50.
## Result 44.2 µM

## Task Given Cc1cc(I)cc(CN(CCCN(C)C)C(C)C)c1O , state its recorded GI50.
## Result 18.2 µM

## Task Given COc1ccc(C(NC(=O)C[C@@H](C(=O)N(C)C(C)C(=O)O)N(C)C(=O)[C@@H]2CCCN2C(=O)[C@H](C(C)C)N(C)C(=O)C(C(C)C)N(C)C(=O)[C@H](Cc2ccccc2)N(C)C(=O)C(NC(=O)OC(C)(C)C)C(C)C)c2ccc(OC)cc2)cc1 (stereo partly specified) (Boc-[ξV][NMeF][ξNMeV][NMeV]P[NMeD](X3)[ξNMeA]-OH) , state its recorded GI50.
## Result 14.5 µM
